I'd be grateful if you could share measured active-substance concentration, 14 d, 40° C. for these entries.
assay: Analysis of active substance: preservative concentration before and after storage in VI-containing polymer solution; type: physicochemical; conditions: in Polymer P3; storage 14 d at 40° C.
Answer format reminder: number followed by unit.

Sure, the documented active-substance concentration, 14 d, 40° C. for CCCCCCCCn1sccc1=O is 163 ppm

Sure, the documented active-substance concentration, 14 d, 40° C. for O=c1[nH]sc2ccccc12 is 119 ppm

Sure, the documented active-substance concentration, 14 d, 40° C. for Cn1sc(Cl)cc1=O is 117 ppm

Sure, the documented active-substance concentration, 14 d, 40° C. for CCCCCCCCCC[N+](C)(C)CCCCCCCCCC.[Cl-] [DDAC, didecyldimethylammonium chloride] is 950 ppm

###

assay: Analysis of active substance: preservative concentration before and after storage in VI-containing polymer solution; type: physicochemical; details: in Polymer P2; before storage
I'd be grateful if you could share measured active-substance concentration, 0 d, RT for these entries.
Answer with a number only, understood to be in ppm.

Sure, the documented active-substance concentration, 0 d, RT for Cn1sccc1=O is 250

Sure, the documented active-substance concentration, 0 d, RT for CCCCCCCCn1sccc1=O is 250

Sure, the documented active-substance concentration, 0 d, RT for O=c1[nH]sc2ccccc12 is 150

Sure, the documented active-substance concentration, 0 d, RT for Cn1sc(Cl)cc1=O is 150

Sure, the documented active-substance concentration, 0 d, RT for CCCCCCCCCC[N+](C)(C)CCCCCCCCCC.[Cl-] [DDAC, didecyldimethylammonium chloride] is 950

Sure, the documented active-substance concentration, 0 d, RT for CCCCCCCCn1sc(Cl)c(Cl)c1=O is 300

Sure, the documented active-substance concentration, 0 d, RT for CCCCCCCCCCCCCCCC[N+](C)(C)Cc1ccccc1.[Cl-] [Polymer 16-BAC, cetylalkonium chloride] is 1000

Sure, the documented active-substance concentration, 0 d, RT for CCCCNC(=O)OCC#CI [Iodopropynyl butyl carbamate, iodopropynyl butyl carbamate] is 250

###

test: Analysis of active substance: preservative concentration before and after storage in VI-containing polymer solution; format: physicochemical; details: in Polymer P8; storage 14 d at 40° C.
I'd be grateful if you could share measured active-substance concentration, 14 d, 40° C. for these entries.
Answer with a number only, understood to be in ppm.

Sure, the documented active-substance concentration, 14 d, 40° C. for Cn1sccc1=O is 151

Sure, the documented active-substance concentration, 14 d, 40° C. for Cn1sc(Cl)cc1=O is 94

Sure, the documented active-substance concentration, 14 d, 40° C. for CCCCCCCCCCCCCCCC[N+](C)(C)Cc1ccccc1.[Cl-] [Polymer 16-BAC, cetylalkonium chloride] is 960

Sure, the documented active-substance concentration, 14 d, 40° C. for CCCCCCCCn1sccc1=O is 142

Sure, the documented active-substance concentration, 14 d, 40° C. for CCCCNC(=O)OCC#CI [Iodopropynyl butyl carbamate, iodopropynyl butyl carbamate] is 206

Sure, the documented active-substance concentration, 14 d, 40° C. for O=c1[nH]sc2ccccc12 is 101

Sure, the documented active-substance concentration, 14 d, 40° C. for CCCCCCCCn1sc(Cl)c(Cl)c1=O is 230

Sure, the documented active-substance concentration, 14 d, 40° C. for CCCCCCCCCC[N+](C)(C)CCCCCCCCCC.[Cl-] [DDAC, didecyldimethylammonium chloride] is 950

###

experiment: Analysis of active substance: preservative concentration before and after storage in VI-containing polymer solution; assay type: physicochemical; settings: in Polymer P4; before storage
readout kind: active-substance concentration, 0 d, RT (ppm)
Answer with a number only, understood to be in ppm.

Sure, the documented active-substance concentration, 0 d, RT for O=c1[nH]sc2ccccc12 is 150

Sure, the documented active-substance concentration, 0 d, RT for Cn1sc(Cl)cc1=O is 150

Sure, the documented active-substance concentration, 0 d, RT for CCCCCCCCCC[N+](C)(C)CCCCCCCCCC.[Cl-] [DDAC, didecyldimethylammonium chloride] is 950

Sure, the documented active-substance concentration, 0 d, RT for CCCCCCCCCCCCCCCC[N+](C)(C)Cc1ccccc1.[Cl-] [Polymer 16-BAC, cetylalkonium chloride] is 1000

###

tested on: Bacteria: Escherichia coli, Staphylococcus aureus, Pseudomonas aeruginosa, Pseudomonas putida, Burkholderia cepacia, Alcaligenes faecalis; assay: Preservation test with periodic inoculation, bacteria assessment; format: cell-based; conditions: Polymer P2; sample stored 60 d at 40° C.
readout kind: 60 d 40° C., bact. assess., 4th inoculation

CCCCCCCCn1sccc1=O [OIT, octylisothiazolinone]	+
O=c1[nH]sc2ccccc12 [BIT, 1,2-benzisothiazolin-3-one]	++
Cn1sccc1=O [MIT, methyl-4-isothiazolin-3-one]	+

###

assay: Iodine color number according to DIN 6162:2014-09; format: physicochemical; conditions: Polymer P8 with stabilizer; 60 d 40° C.
readout kind: Iodine color number, 60 d 40° C.

Sure, the documented Iodine color number, 60 d 40° C. for CCCCNC(=O)OCC#CI [Iodopropynyl butyl carbamate, iodopropynyl butyl carbamate] is 11.4

Sure, the documented Iodine color number, 60 d 40° C. for CCCCCCCCCC[N+](C)(C)CCCCCCCCCC.[Cl-] [DDAC, didecyldimethylammonium chloride] is 3.3

Sure, the documented Iodine color number, 60 d 40° C. for CCCCCCCCn1sc(Cl)c(Cl)c1=O is 8.9

Sure, the documented Iodine color number, 60 d 40° C. for CCCCCCCCCCCCCCCC[N+](C)(C)Cc1ccccc1.[Cl-] [Polymer 16-BAC, cetylalkonium chloride] is 3.5

Sure, the documented Iodine color number, 60 d 40° C. for O=c1[nH]sc2ccccc12 is 10.4

Sure, the documented Iodine color number, 60 d 40° C. for CCCCCCCCn1sccc1=O is 10.0

Sure, the documented Iodine color number, 60 d 40° C. for Cn1sc(Cl)cc1=O is 9.3

Sure, the documented Iodine color number, 60 d 40° C. for Cn1sccc1=O is 8.6

###

assay: Analysis of active substance: preservative concentration before and after storage in VI-containing polymer solution; format: physicochemical; settings: in Polymer P4; storage 28 d at 40° C.
I'd be grateful if you could share measured active-substance concentration, 28 d, 40° C. for these entries.
Answer format reminder: number followed by unit.

Sure, the documented active-substance concentration, 28 d, 40° C. for CCCCNC(=O)OCC#CI [Iodopropynyl butyl carbamate, iodopropynyl butyl carbamate] is 188 ppm

Sure, the documented active-substance concentration, 28 d, 40° C. for CCCCCCCCCCCCCCCC[N+](C)(C)Cc1ccccc1.[Cl-] [Polymer 16-BAC, cetylalkonium chloride] is 960 ppm

Sure, the documented active-substance concentration, 28 d, 40° C. for CCCCCCCCn1sc(Cl)c(Cl)c1=O is 198 ppm

Sure, the documented active-substance concentration, 28 d, 40° C. for Cn1sccc1=O is 136 ppm

Sure, the documented active-substance concentration, 28 d, 40° C. for CCCCCCCCCC[N+](C)(C)CCCCCCCCCC.[Cl-] [DDAC, didecyldimethylammonium chloride] is 942 ppm

Sure, the documented active-substance concentration, 28 d, 40° C. for CCCCCCCCn1sccc1=O is 114 ppm

Sure, the documented active-substance concentration, 28 d, 40° C. for Cn1sc(Cl)cc1=O is 89 ppm

Sure, the documented active-substance concentration, 28 d, 40° C. for O=c1[nH]sc2ccccc12 is 93 ppm

###

assay: Analysis of active substance: preservative concentration before and after storage in VI-containing polymer solution; format: physicochemical; settings: in Polymer P7; before storage
I'd be grateful if you could share measured active-substance concentration, 0 d, RT for these entries.
Answer with a number only, understood to be in ppm.

Sure, the documented active-substance concentration, 0 d, RT for O=c1[nH]sc2ccccc12 [BIT, 1,2-benzisothiazolin-3-one] is 150

Sure, the documented active-substance concentration, 0 d, RT for Cn1sccc1=O [MIT, methyl-4-isothiazolin-3-one] is 250

Sure, the documented active-substance concentration, 0 d, RT for Cn1sc(Cl)cc1=O [CMIT, 5-chloro-N-methylisothiazolin-3-one] is 150

Sure, the documented active-substance concentration, 0 d, RT for CCCCCCCCCC[N+](C)(C)CCCCCCCCCC.[Cl-] [DDAC, didecyldimethylammonium chloride] is 950

Sure, the documented active-substance concentration, 0 d, RT for CCCCNC(=O)OCC#CI [Iodopropynyl butyl carbamate, iodopropynyl butyl carbamate] is 250

Sure, the documented active-substance concentration, 0 d, RT for CCCCCCCCn1sc(Cl)c(Cl)c1=O [DCOIT, dichloroctylisothiazolinone] is 300

Sure, the documented active-substance concentration, 0 d, RT for CCCCCCCCCCCCCCCC[N+](C)(C)Cc1ccccc1.[Cl-] [Polymer 16-BAC, cetylalkonium chloride] is 1000

Sure, the documented active-substance concentration, 0 d, RT for CCCCCCCCn1sccc1=O [OIT, octylisothiazolinone] is 250
